Source of measurements: PubChem BioAssay AID504652

target: D(1A) dopamine receptor (Homo sapiens) (UniProt P21728); assay: Antagonist of Human D 1 Dopamine Receptor: qHTS; conditions: HEK293 TREx D1 cells, calcium flux, dopamine EC80; at 10 µM; also: % is scaled to controls: 0 for no effect and ±100 for the full control effect
Sequence (P21728 whole entry, looked up): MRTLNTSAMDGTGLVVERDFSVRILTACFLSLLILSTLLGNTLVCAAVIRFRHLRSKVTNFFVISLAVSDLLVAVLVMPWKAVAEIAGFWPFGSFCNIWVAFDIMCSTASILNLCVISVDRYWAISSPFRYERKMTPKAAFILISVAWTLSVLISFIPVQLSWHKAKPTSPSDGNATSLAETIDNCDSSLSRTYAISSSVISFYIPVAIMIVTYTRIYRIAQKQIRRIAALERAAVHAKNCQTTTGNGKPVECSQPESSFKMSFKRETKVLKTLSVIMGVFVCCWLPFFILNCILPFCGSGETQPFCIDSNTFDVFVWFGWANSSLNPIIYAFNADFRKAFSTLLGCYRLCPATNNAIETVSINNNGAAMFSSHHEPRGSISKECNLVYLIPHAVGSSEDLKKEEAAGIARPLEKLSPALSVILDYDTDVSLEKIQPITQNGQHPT
The campaign covered roughly 360,000 compounds. About 11,000 (3.1%) were called active. Rule as the data show it: active = activity change below about -30%; inactive = the rest. The sample as a whole holds a higher share of actives than the screen did.
Outcome codes: y (active), n (inactive)

> print(dat)
                                   compound                     target.or.test.system  assigned.category
1  COc1ccc(-c2noc(CSc3nc4ccc(C)cc4[nH]3)n2)cc1  D(1A) dopamine receptor (Homo sapiens) (UniProt P21728)                  n
2  O=S(=O)(NC1CCN(S(=O)(=O)c2ccc3c(c2)OCCO3)CC1)c1c(F)cccc1F  D(1A) dopamine receptor (Homo sapiens) (UniProt P21728)                  y
3  O=C(CSc1ncc(CO)n1Cc1ccc(Cl)cc1)NCc1ccc(F)cc1  D(1A) dopamine receptor (Homo sapiens) (UniProt P21728)                  n
4  O=S(=O)(c1ccc2c(c1)OCCCO2)N1CCN(S(=O)(=O)c2c(F)cccc2F)CC1  D(1A) dopamine receptor (Homo sapiens) (UniProt P21728)                  n
5  CN(C(=O)c1ccc2c(c1)N(Cc1cccc(Cl)c1)C(=O)c1ccccc1S2=O)C1CCCCC1 (stereo not given)  D(1A) dopamine receptor (Homo sapiens) (UniProt P21728)                  n

###

Biological target: D(1A) dopamine receptor (Homo sapiens) (UniProt P21728)
Test: Antagonist of Human D 1 Dopamine Receptor: qHTS; also: % is scaled to controls: 0 for no effect and ±100 for the full control effect
Conditions: HEK293 TREx D1 cells, calcium flux, dopamine EC80; at 10 µM
Method: Dopamine receptors (DARs) are involved in the etiology and/or therapy of a number of neuropsychiatric and endocrine disorders. […] Freshly passaged cells are plated in 1536 well black, clear bottom plates at a density of 4000 cells/well in 3 ul of complete media containing 1x tetracycline inducer. […] Agonist read: A 10 cycle (1 second/cycle) baseline measurement is taken and then the FDSS online 1536 pintool delivers 23 nl of compound library (as well as dopamine controls) to the plate. […]
Among all 360,000 compounds or so, about 11,000 (3.1%) were called active. No stated cut-off is given here; in the data, active means activity change below about -30%; inactive means the rest. The sample as a whole holds a higher share of actives than the screen did.
Outcome codes: active, inactive

> print(dat)
                                   compound  assigned.category
1  O=C(NCc1ccco1)c1ccc(NS(=O)(=O)c2cccc([N+](=O)[O-])c2)cc1             active
2  Cc1ccc(C)c(CN2C(=O)c3ccccc3S(=O)c3ccc(C(=O)N4CCOCC4)cc32)c1 (stereo not given)           inactive
3  O=C(NCc1ccncc1)c1cccc(NS(=O)(=O)c2ccc(F)c(F)c2)c1           inactive
4  O=C(NCc1ccncc1)c1ccc(NS(=O)(=O)c2cccc([N+](=O)[O-])c2)cc1             active
5  O=[N+]([O-])c1cccc(S(=O)(=O)NCc2ccccn2)c1           inactive

###

molecular target: D(1A) dopamine receptor (Homo sapiens); experiment: Antagonist of Human D 1 Dopamine Receptor: qHTS; settings: HEK293 TREx D1 cells, calcium flux, dopamine EC80; at 10 µM; stronger effect = lower value; also: % is scaled to controls: 0 for no effect and ±100 for the full control effect
Among all 360,000 compounds or so, about 11,000 (3.1%) were called active. This is one part of a sample in which actives are shown more often than they occur.
OBSERVATION TYPE: activity change, negative = inhibition (%)

> print(dat)
                             molecule.smiles                   target.or.test.system                        observation.type  measurement
 1  Cc1ccc(-c2cc(C(F)(F)F)c(C#N)c(SCC(=O)Nc3ccccc3)n2)cc1  D(1A) dopamine receptor (Homo sapiens)  activity change, negative = inhibition        -36.2
 2        CCOC(=O)COc1nc(C)cc(C(F)(F)F)c1C#N  D(1A) dopamine receptor (Homo sapiens)  activity change, negative = inhibition        -9.55
 3  Cc1nc(SCCOc2ccc(Cl)cc2)[nH]c(=O)c1Cc1ccccc1  D(1A) dopamine receptor (Homo sapiens)  activity change, negative = inhibition        -8.51
 4            CCCN1CCc2nc(N3CCN(C)CC3)ncc2C1  D(1A) dopamine receptor (Homo sapiens)  activity change, negative = inhibition        -15.6
 5         Cc1nc(SC(C)C)[nH]c(=O)c1Cc1ccccc1  D(1A) dopamine receptor (Homo sapiens)  activity change, negative = inhibition        -31.2
 6  Nc1c(C(=O)c2cccs2)sc2nsc(SCCN3CCCCC3)c12  D(1A) dopamine receptor (Homo sapiens)  activity change, negative = inhibition        -42.4
 7  Cc1ccc(OCCSc2nc(C)c(Cc3ccccc3)c(=O)[nH]2)cc1  D(1A) dopamine receptor (Homo sapiens)  activity change, negative = inhibition        -2.95
 8  O=C(NCCCN1CCOCC1)c1ccc2c(c1)N(Cc1cccc(F)c1)C(=O)c1ccccc1S2  D(1A) dopamine receptor (Homo sapiens)  activity change, negative = inhibition        -42.1
 9   CCN(CC)c1nc(-c2ccccc2)cc(C(F)(F)F)c1C#N  D(1A) dopamine receptor (Homo sapiens)  activity change, negative = inhibition        -72.6
10  CCC1=Nc2cc(C(=O)NCCCN3CCOCC3)ccc2Sc2ccc(Br)cc21  D(1A) dopamine receptor (Homo sapiens)  activity change, negative = inhibition           11
11  N#Cc1c(C(F)(F)F)cc(-c2ccccc2)nc1SCC(=O)N1CCOCC1  D(1A) dopamine receptor (Homo sapiens)  activity change, negative = inhibition         7.61
